Cited source for all entries: patent US9840520B2

The following compounds have recorded IC50 on HDAC-5 (Homo sapiens, UniProt Q9UQL6).
Sequence (Q9UQL6 whole entry): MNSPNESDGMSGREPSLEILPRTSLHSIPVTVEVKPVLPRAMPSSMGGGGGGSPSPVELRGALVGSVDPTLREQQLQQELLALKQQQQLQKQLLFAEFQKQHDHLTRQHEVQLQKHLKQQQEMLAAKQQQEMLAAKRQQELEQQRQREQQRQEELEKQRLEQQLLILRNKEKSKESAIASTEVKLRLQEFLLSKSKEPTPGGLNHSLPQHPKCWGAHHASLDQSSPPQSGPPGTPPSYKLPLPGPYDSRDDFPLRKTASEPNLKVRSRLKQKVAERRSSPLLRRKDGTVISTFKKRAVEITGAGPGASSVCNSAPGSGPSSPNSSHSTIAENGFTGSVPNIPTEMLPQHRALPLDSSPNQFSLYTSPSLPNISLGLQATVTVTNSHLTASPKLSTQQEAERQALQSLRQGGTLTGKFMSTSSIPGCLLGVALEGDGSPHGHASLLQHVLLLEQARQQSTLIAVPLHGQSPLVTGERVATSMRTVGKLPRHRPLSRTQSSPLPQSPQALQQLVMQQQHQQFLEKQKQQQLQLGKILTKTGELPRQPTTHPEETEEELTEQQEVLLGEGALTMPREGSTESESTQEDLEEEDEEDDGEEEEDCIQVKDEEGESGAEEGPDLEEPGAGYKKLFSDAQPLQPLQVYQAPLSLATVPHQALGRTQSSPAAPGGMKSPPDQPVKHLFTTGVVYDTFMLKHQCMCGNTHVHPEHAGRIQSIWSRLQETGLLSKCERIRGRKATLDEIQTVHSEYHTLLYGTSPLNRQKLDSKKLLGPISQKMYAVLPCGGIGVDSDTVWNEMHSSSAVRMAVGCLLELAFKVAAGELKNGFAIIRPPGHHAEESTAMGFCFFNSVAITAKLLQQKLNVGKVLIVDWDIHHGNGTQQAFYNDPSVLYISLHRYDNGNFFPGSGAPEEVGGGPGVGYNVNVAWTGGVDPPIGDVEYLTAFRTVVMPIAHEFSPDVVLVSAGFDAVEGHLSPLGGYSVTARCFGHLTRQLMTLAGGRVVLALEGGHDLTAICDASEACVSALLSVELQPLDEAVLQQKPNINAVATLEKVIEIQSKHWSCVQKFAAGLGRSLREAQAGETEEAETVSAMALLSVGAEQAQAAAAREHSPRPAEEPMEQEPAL

Requested read-out: IC50. Entry: Cn1cnc2c(NC3CCCCC3)nc(Nc3ccc(OCCCCCC(=O)NO)cc3)nc21
> 100 µM

Entry Cn1cnc2c(NC3CCCCC3)nc(Nc3ccc(OCCCCCCC(=O)NO)cc3)nc21 : reported IC50 = ?
> 100 µM

---

Please go through the items and note down their IC50.
biological target: HDAC-11 (Homo sapiens, UniProt Q96DB2)
Sequence (Q96DB2 whole entry): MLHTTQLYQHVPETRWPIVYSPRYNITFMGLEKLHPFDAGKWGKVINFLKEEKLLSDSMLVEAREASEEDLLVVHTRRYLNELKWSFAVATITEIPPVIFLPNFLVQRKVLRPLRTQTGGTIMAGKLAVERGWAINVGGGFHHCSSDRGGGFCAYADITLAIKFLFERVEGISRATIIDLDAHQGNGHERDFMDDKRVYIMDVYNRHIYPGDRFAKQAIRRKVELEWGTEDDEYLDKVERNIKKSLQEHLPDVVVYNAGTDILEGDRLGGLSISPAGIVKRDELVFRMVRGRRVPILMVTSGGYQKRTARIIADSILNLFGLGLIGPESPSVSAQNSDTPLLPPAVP

So what's the measured IC50 for this one? Cn1cnc2c(NC3CCCCC3)nc(Nc3ccc(OCCCCCC(=O)NO)cc3)nc21 [Example 9]
159 nM

Entry Cn1cnc2c(NC3CCCCC3)nc(Nc3ccc(OCCCCCCC(=O)NO)cc3)nc21 [Example 8] has what IC50?
12 nM

---

Biological target: HDAC-6 (Homo sapiens, UniProt Q9UBN7)
Sequence (Q9UBN7 1-1215): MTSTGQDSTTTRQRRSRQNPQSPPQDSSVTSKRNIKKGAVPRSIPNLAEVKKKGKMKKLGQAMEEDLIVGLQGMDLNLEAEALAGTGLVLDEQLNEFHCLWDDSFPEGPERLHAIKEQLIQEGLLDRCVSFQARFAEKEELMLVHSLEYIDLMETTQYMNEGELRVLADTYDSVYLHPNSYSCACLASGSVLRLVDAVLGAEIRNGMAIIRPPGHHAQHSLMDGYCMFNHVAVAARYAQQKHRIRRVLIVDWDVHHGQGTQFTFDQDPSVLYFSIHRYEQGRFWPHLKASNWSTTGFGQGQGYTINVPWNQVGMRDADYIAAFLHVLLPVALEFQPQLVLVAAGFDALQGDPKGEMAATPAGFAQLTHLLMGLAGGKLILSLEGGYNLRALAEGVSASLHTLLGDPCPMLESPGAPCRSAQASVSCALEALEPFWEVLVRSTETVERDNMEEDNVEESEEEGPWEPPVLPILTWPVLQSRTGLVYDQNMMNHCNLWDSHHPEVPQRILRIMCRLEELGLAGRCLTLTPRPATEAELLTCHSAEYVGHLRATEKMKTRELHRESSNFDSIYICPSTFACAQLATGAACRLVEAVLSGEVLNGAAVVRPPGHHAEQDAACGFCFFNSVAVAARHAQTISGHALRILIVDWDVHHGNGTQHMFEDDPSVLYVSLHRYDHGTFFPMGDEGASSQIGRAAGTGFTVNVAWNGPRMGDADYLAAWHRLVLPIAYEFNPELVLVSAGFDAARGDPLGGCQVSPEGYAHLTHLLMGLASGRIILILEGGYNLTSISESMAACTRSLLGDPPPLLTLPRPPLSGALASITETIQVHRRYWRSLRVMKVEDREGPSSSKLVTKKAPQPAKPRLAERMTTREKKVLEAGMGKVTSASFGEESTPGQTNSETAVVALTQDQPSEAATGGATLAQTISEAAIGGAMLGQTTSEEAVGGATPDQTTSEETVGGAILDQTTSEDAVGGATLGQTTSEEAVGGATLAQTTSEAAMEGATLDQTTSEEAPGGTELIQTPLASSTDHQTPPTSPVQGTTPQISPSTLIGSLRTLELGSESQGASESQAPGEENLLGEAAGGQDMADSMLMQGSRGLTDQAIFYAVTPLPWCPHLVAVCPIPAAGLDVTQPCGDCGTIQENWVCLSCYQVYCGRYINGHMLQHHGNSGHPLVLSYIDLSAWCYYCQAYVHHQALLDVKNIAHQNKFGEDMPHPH
Measurement Label: pIC50
Keep in mind that pIC50 stands for -log10 of concentration in molar terms.

Look up pIC50 with HDAC-6 (Homo sapiens, UniProt Q9UBN7) for this molecule: Cn1cnc2c(NC3CCCCC3)nc(Nc3ccc(OCCCCCC(=O)NO)cc3)nc21 [Example 9]
8.01
